Hey, just so you know, these numbers are from patent US20240279233A1.

# testDescription: Solubility assay in phosphate buffer
# measurementSetup: phosphate buffer, pH 7.4, aqueous buffer, kinetic from dmso stock, Solubility (μM), phosphate buffer 100 mM, pH 7.4, room temperature, 20-24 h, LC-UV
Provide the recorded solubility for the entries that follow.
Just the number please, in µM, no unit attached.

What value of measured solubility is listed for CC1CCCCNC(=O)c2cccc(c2)C(=O)Nc2nc3ccccc3n21 (centres unmarked) [Example 6] ? 2.5

Which solubility reading was recorded for the molecule CN(C)[C@H]1CCN(C(=O)c2cccc3c2N2CCCCCNC(=O)c4cccc(c4)C(=O)/N=C/2N3)C1 [Example 21] ? 85.1

Which solubility value belongs to C[C@H]1CCCCNC(=O)c2cccc(c2)C(=O)/N=C2\Nc3cccc(-c4cn(C)nn4)c3N21 [Example 87] ? 4.7

Dear colleague, I am looking for the recorded solubility of the following molecule: CN1CCN(Cc2ccc3c(c2)N2CCCCCNC(=O)c4cccc(c4)C(=O)/N=C/2N3)CC1 [Example 101] 20.8

Requested read-out: solubility. Entry: C[C@@H]1CCCCNC(=O)c2cccc(c2)C(=O)Nc2nc3cccc(N4CCN(C)C4=O)c3n21 [Example 65] 95

Find the recorded solubility belonging to CC1CCCCNC(=O)c2cccc(c2)C(=O)/N=C2\Nc3cccc(C(=O)N(C)CCF)c3N21 (single isomer, unassigned) [Example 70] and report it. 90

Given CN1CCN(C(=O)c2cccc3nc4n(c23)CCCCCNC(=O)c2cccc(c2)C(=O)N4)CC1 [Example 10] , state its recorded solubility. 28

I have this molecule here, CC1CCCCNC(=O)c2cccc(c2)C(=O)Nc2nc3cccc(C(=O)N4CCNCC4)c3n21 (centres unmarked) [Example 15] , and I need its recorded solubility. 90.1
